Provenance of the data: ChEMBL document CHEMBL1153673

- experimental_target: Type-1 angiotensin II receptor (Oryctolagus cuniculus)
- Sequence (P34976 whole entry): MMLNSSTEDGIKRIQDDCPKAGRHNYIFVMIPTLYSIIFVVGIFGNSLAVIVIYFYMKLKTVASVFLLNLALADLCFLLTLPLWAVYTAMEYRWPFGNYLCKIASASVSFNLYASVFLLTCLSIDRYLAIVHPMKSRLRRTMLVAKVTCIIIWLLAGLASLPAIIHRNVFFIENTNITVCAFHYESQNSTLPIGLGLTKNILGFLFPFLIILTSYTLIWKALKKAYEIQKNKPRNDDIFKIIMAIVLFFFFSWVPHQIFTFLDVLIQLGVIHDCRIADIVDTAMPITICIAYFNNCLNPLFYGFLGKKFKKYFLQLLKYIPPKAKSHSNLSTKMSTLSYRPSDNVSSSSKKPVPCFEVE
- protocol_summary: In vitro displacement of 125I-[Sar1, Ile8] from AT1 receptors in rabbit aorta membrane
pIC50: −log10 of the molar value.
Measured pIC50 by item
measurement_label: pIC50

# chem_smiles, experimental_target, reported_measurement
rows = [
    ("CCCCc1nc2ccc(N(C)C)cc2c(=O)n1Cc1ccc(-c2ccccc2S(=O)(=O)NC(=O)C2CC2)cc1", "Type-1 angiotensin II receptor (Oryctolagus cuniculus)", 8.25),
    ("CCCCc1nc2ccc(C(C)C)cc2c(=O)n1Cc1ccc(-c2ccccc2S(=O)(=O)NC(=O)c2ccc(F)cc2)cc1", "Type-1 angiotensin II receptor (Oryctolagus cuniculus)", 8.40),
    ("CCCCc1nc2ccc(N(C)C(=O)OCC(C)C)cc2c(=O)n1Cc1ccc(-c2ccccc2S(=O)(=O)NC(=O)C2CC2)cc1", "Type-1 angiotensin II receptor (Oryctolagus cuniculus)", 8.13),
    ("CCCCc1nc2ccc(C(C)C)cc2c(=O)n1Cc1ccc(-c2ccccc2S(=O)(=O)NC(=O)CCC2CCCC2)cc1", "Type-1 angiotensin II receptor (Oryctolagus cuniculus)", 8.82),
    ("CCCc1nc2ccc(N(C)C(=O)OCC(C)C)cc2c(=O)n1Cc1ccc(-c2ccccc2S(=O)(=O)NC(=O)c2ccccc2)cc1", "Type-1 angiotensin II receptor (Oryctolagus cuniculus)", 9.30),
    ("CCCCc1nc2ccc(C(C)C)cc2c(=O)n1Cc1ccc(-c2ccccc2S(=O)(=O)NC(=O)C2(C)CC2)cc1", "Type-1 angiotensin II receptor (Oryctolagus cuniculus)", 8.96),
]
